shrunken log2 fold change for assorted sequences
- System: Escherichia coli TOP10
- TEST_SUMMARY: shrunken log2 fold change of peptide-encoding DNA abundance (4.5 h post-induction vs induction); higher = less antimicrobial activity (less host growth inhibition)
- PARTICULARS: time post-induction: 4.5 h; library: site-saturation at positions 5, 18, 19, 20
MEASURED_PARAMETER: shrunken log2 fold change

1. RRIRYRPPRLPRPRPRPSYYPRP :: -1.66
2. RRIRKRPPRLPRPRPRPCLNPRP :: 0.00932
3. RRIRMRPPRLPRPRPRPYELPRP :: 0.0224
4. RRIRSRPPRLPRPRPRPDFIPRP :: 0.00191

* * *

- System: Escherichia coli TOP10;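 further: peptides expressed intracellularly from a pBAD plasmid library in pooled LB shake-flask culture, induced with 0.3% L-arabinose, DNA abundance read by NGS, three biological replicates, DESeq2 with apeglm shrinkage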
- TEST_SUMMARY: shrunken log2 fold change of peptide-encoding DNA abundance (4.5 h post-induction vs induction); higher = less antimicrobial activity (less host growth inhibition)
- PARTICULARS: time post-induction: 4.5 h; library: site-saturation at positions 5, 18, 19, 20
MEASURED_PARAMETER: shrunken log2 fold change

1) RRIRWRPPRLPRPRPRPDWWPRP :: 0.0352
2) RRIRCRPPRLPRPRPRPLKLPRP :: -0.271
3) RRIRIRPPRLPRPRPRPYWKPRP :: -0.0289
4) RRIRRRPPRLPRPRPRPASYPRP :: -0.111
5) RRIRHRPPRLPRPRPRPMFEPRP :: -0.239
6) RRIRTRPPRLPRPRPRPAKYPRP :: -0.355
7) RRIRFRPPRLPRPRPRPFTMPRP :: -0.817
8) RRIRWRPPRLPRPRPRPLDSPRP :: 0.0674
9) RRIRMRPPRLPRPRPRPPIAPRP :: 0.826
10) RRIRNRPPRLPRPRPRPFREPRP :: -0.0373
11) RRIRWRPPRLPRPRPRPNKPPRP :: -0.0749
12) RRIRGRPPRLPRPRPRPVRQPRP :: 0.883
13) RRIRWRPPRLPRPRPRPRKSPRP :: 0.264
14) RRIRYRPPRLPRPRPRPGRQPRP :: -0.031
15) RRIRHRPPRLPRPRPRPQACPRP :: -0.208
16) RRIRLRPPRLPRPRPRPILKPRP :: 0.0777
17) RRIRTRPPRLPRPRPRPSIWPRP :: 0.112
18) RRIRIRPPRLPRPRPRPAKQPRP :: 0.0314
19) RRIRFRPPRLPRPRPRPCHNPRP :: -0.0447
20) RRIRPRPPRLPRPRPRPMMKPRP :: -0.173
21) RRIRSRPPRLPRPRPRPQPRPRP :: 0.285
22) RRIRRRPPRLPRPRPRPSDGPRP :: 0.0219
23) RRIRDRPPRLPRPRPRPRPGPRP :: 1.6
24) RRIRDRPPRLPRPRPRPICPPRP :: 0.106
25) RRIRLRPPRLPRPRPRPEGGPRP :: 0.0449
26) RRIRCRPPRLPRPRPRPRLRPRP :: 0.925
27) RRIRPRPPRLPRPRPRPDSLPRP :: -0.257
28) RRIRVRPPRLPRPRPRPPEHPRP :: -0.219
29) RRIRFRPPRLPRPRPRPQNFPRP :: 0.0645
30) RRIRPRPPRLPRPRPRPNVIPRP :: -0.451

Data origin: the supplement of paper PMC9112550
